All values here come from patent US20110009381A1.

biological target: SIRT1 (Homo sapiens, UniProt Q96EB6); assay: Mass spectrometry based assay to identify modulators of SIRT1 activity (deacetylation of p53-based acetylated peptide substrate); assay type: biochemical; settings: SIRT1 activation; 10 nM SIRT1, 0.5 μM peptide substrate, 120 μM βNAD+, 25 minutes at 25° C.
MEASUREMENT KIND: EC1.5

Use the examples below as a reference point.
CNCCNc1cc(C(=O)Nc2ccccc2-c2nc3cccnc3s2)nc(-c2ccccc2)n1 ... A′ (EC1.5<250 nM)
O=C(Nc1ccccc1-c1nc2cccnc2s1)c1cc(NC2CCNC2)nc(-c2ccccc2)n1 (stereo not shown) ... A′ (EC1.5<250 nM)
O=C(Nc1ccccc1-c1nc2cccnc2s1)c1cc(N2C[C@H]3C[C@@H]2CN3)nc(-c2ccccc2)n1 ... A′ (EC1.5<250 nM)
COCCN1CCN(c2cc(C(=O)Nc3ccccc3-c3nc4cccnc4s3)nc(-c3ccccc3)c2)CC1 ... A′ (EC1.5<250 nM)
Cl.O=C(Nc1ccccc1-c1nc2cccnc2s1)c1cc(NCCN2CCCCC2)nc(-c2ccccc2)n1 ... A′ (EC1.5<250 nM)

// next entry
Respond only with EC1.5 recorded for CCOc1cc(C(=O)Nc2ccccc2-c2nc3cccnc3s2)nc(-c2ccccc2)n1
C (EC1.5>10 uM)

###

Target: SIRT1 (Homo sapiens)
Sequence (Q96EB6 1-747): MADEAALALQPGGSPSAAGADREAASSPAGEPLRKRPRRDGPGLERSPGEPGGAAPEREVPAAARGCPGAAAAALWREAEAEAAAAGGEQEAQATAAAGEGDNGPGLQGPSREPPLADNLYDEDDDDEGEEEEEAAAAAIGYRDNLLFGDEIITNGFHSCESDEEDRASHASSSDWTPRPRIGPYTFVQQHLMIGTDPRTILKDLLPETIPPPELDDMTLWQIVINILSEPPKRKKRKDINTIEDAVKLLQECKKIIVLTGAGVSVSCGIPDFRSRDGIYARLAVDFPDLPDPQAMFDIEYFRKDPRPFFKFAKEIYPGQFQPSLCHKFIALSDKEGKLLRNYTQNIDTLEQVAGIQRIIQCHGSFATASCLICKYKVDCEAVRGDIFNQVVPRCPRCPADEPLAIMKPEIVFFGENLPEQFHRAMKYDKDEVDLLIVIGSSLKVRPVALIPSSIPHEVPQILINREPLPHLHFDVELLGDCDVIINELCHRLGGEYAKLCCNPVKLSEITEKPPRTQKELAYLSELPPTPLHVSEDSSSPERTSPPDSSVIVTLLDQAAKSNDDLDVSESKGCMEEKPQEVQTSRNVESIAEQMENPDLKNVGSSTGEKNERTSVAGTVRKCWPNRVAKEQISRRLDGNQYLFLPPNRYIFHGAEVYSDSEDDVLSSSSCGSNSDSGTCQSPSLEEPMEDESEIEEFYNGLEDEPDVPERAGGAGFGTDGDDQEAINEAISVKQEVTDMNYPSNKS
Assay: Mass spectrometry based assay to identify modulators of SIRT1 activity (deacetylation of p53-based acetylated peptide substrate)
Type: biochemical
Details: SIRT1 activation; 10 nM SIRT1, 0.5 μM peptide substrate, 120 μM βNAD+, 25 minutes at 25° C.
MEASUREMENT KIND: EC1.5

NCCCOc1cc(C(=O)Nc2ccccc2-c2nc3cccnc3s2)nc(-c2ccccc2)n1 [Compound 76] ... A′ (EC1.5<250 nM)
CCN1CCC(Nc2cc(C(=O)Nc3ccccc3-c3nc4cccnc4s3)nc(-c3ccccc3)n2)CC1 [Compound 100] ... A′ (EC1.5<250 nM)
Cc1ccc(-c2nc(NCCN(C)C)cc(C(=O)Nc3ccccc3-c3nc4cccnc4s3)n2)cc1 [Compound 111] ... A′ (EC1.5<250 nM)

###

Biological target: SIRT1 (Homo sapiens, UniProt Q96EB6)
Assay: Mass spectrometry based assay to identify modulators of SIRT1 activity (deacetylation of p53-based acetylated peptide substrate)
Assay type: biochemical
Conditions: 10 nM SIRT1, 0.5 μM peptide substrate, 120 μM βNAD+, 25 minutes at 25° C.
Source text: A mass spectrometry based assay was used to identify modulators of SIRT1 activity. The mass spectrometry based assay utilizes a peptide having 20 amino acid residues as follows: Ac-EE-K(biotin)-GQSTSSHSK(Ac)NleSTEG-K(5TMR)-EE-NH2 (SEQ ID NO: 1) wherein K(Ac) is an acetylated lysine residue and Nle is a norleucine. The peptide is labeled with the fluorophore 5TMR (excitation 540 nm/emission 580 nm) at the C-terminus. The sequence of the peptide substrate is based on p53 with several modifications. […]
MEASUREMENT KIND: FOLD ACT. (percent maximum fold activation)

NCCOc1cc(C(=O)Nc2ccccc2-c2nc3cccnc3s2)nc(-c2ccccc2)n1 ... A (Fold activation≧300%)
O=C(Nc1ccccc1-c1nc2cccnc2s1)c1cc(NC2CCNC2)nc(-c2ccccc2)n1 (stereo not shown) ... A (Fold activation≧300%)
Cc1cccc(-c2nc(NC(CO)CO)cc(C(=O)Nc3ccccc3-c3nc4cccnc4s3)n2)c1 ... A (Fold activation≧300%)

###

Biological target: SIRT1 (Homo sapiens, UniProt Q96EB6)
Sequence (Q96EB6 1-747): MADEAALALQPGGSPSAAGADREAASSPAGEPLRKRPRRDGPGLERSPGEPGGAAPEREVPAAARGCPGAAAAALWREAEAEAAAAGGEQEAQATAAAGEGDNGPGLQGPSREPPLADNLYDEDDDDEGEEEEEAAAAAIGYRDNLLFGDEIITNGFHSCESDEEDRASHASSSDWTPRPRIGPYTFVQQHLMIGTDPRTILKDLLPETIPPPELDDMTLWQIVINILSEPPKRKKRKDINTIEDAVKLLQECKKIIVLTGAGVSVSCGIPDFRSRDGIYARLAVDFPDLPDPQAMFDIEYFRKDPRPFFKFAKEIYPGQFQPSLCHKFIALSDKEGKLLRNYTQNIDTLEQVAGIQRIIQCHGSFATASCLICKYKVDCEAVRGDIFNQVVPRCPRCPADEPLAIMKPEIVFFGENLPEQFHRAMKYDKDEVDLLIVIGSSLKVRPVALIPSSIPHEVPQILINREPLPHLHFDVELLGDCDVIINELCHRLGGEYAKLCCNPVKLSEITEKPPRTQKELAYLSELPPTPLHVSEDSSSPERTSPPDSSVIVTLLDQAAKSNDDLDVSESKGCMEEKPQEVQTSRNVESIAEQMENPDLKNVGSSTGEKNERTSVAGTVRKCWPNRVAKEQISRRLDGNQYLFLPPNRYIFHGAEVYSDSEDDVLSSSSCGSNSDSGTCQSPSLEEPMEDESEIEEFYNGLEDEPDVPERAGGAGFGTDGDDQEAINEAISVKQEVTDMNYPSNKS
Test: Mass spectrometry based assay to identify modulators of SIRT1 activity (deacetylation of p53-based acetylated peptide substrate)
Format: biochemical
Details: 10 nM SIRT1, 0.5 μM peptide substrate, 120 μM βNAD+, 25 minutes at 25° C.
MEASUREMENT KIND: FOLD ACT. (percent maximum fold activation)

CN(C)CCNc1cc(C(=O)Nc2ccccc2-c2nc3cccnc3s2)nc(-c2ccccc2)n1 [Compound 9] ... A (Fold activation≧300%)
CCCCNc1cc(C(=O)Nc2ccccc2-c2nc3cccnc3s2)nc(-c2ccccc2)n1 [Compound 42] ... C (Fold Activation<150%)
O=C(Nc1ccccc1-c1nc2cccnc2s1)c1cc(NCC2CCNCC2)nc(-c2ccccc2)n1 [Compound 82] ... A (Fold activation≧300%)
O=C(Nc1ccccc1-c1nc2ccncc2s1)c1cc(NCc2ccncc2)nc(-c2ccccc2)n1 [Compound 32] ... A (Fold activation≧300%)
COCCN(C)c1cc(C(=O)Nc2ccccc2-c2nc3ccncc3s2)nc(-c2ccccc2)n1 [Compound 29] ... A (Fold activation≧300%)

Specify measured FOLD ACT. (percent maximum fold activation) for CNc1cc(C(=O)Nc2ccccc2-c2nc3cccnc3s2)nc(-c2ccccc2)n1 [Compound 64] .
C (Fold Activation<150%)

Tell me measured FOLD ACT. (percent maximum fold activation) for Cc1cccc(-c2nc(NCCN3CCCCC3)cc(C(=O)Nc3ccccc3-c3nc4cccnc4s3)n2)c1 [Compound 132] please.
A (Fold activation≧300%)

Look up and report measured FOLD ACT. (percent maximum fold activation) for this entry: CS(=O)(=O)N1CCC(Nc2cc(C(=O)Nc3ccccc3-c3nc4cccnc4s3)nc(-c3ccccc3)n2)CC1 [Compound 135]
A (Fold activation≧300%)

Note down FOLD ACT. (percent maximum fold activation) recorded for CN(C)CCOc1cc(C(=O)Nc2ccccc2-c2nc3cccnc3s2)nc(-c2ccccc2)n1 [Compound 94]
A (Fold activation≧300%)

Answer with reported FOLD ACT. (percent maximum fold activation) of CCN(CCN(C)C)c1cc(C(=O)Nc2ccccc2-c2nc3cccnc3s2)nc(-c2ccccc2)n1 [Compound 146]
A (Fold activation≧300%)

Identify measured FOLD ACT. (percent maximum fold activation) corresponding to O=C(Nc1ccccc1-c1nc2ccncc2s1)c1cc(NCCN2CCCC2)nc(-c2ccccc2)n1 [Compound 56]
A (Fold activation≧300%)

Quickly give me recorded FOLD ACT. (percent maximum fold activation) for CC(C)(C)N1CCC(Nc2cc(C(=O)Nc3ccccc3-c3nc4cccnc4s3)nc(-c3ccccc3)n2)CC1 [Compound 125]
A (Fold activation≧300%)

Answer with reported FOLD ACT. (percent maximum fold activation) of Cc1ccc(-c2nc(NCCN(C)C)cc(C(=O)Nc3ccccc3-c3nc4cccnc4s3)n2)cc1 [Compound 111]
A (Fold activation≧300%)

Read the entry O=C(O)CCNc1cc(C(=O)Nc2ccccc2-c2nc3cccnc3s2)nc(-c2ccccc2)n1 [Compound 44] and write its reported FOLD ACT. (percent maximum fold activation).
A (Fold activation≧300%)

Determine from records and report FOLD ACT. (percent maximum fold activation) for O=C(Nc1ccccc1-c1nc2ccncc2s1)c1cc(NCCN2CCOCC2)nc(-c2ccccc2)n1 [Compound 30]
A (Fold activation≧300%)

Complete the entry with FOLD ACT. (percent maximum fold activation) for CN(C)CCN(C)c1cc(C(=O)Nc2ccccc2-c2nc3cccnc3s2)nc(-c2ccccc2)n1 [Compound 145]
A (Fold activation≧300%)

Give a short answer stating reported FOLD ACT. (percent maximum fold activation) for Cc1cccc(-c2nc(OC[C@@H](O)CO)cc(C(=O)Nc3ccccc3-c3nc4cccnc4s3)n2)c1 [Compound 142] .
A (Fold activation≧300%)

Supply reported FOLD ACT. (percent maximum fold activation) belonging to this compound: CC(C)NCCNc1cc(C(=O)Nc2ccccc2-c2nc3cccnc3s2)nc(-c2ccccc2)n1 [Compound 52]
A (Fold activation≧300%)

Name the recorded FOLD ACT. (percent maximum fold activation) of the item O=C(Nc1ccccc1-c1nc2cccnc2s1)c1cc(NC2CCCNC2)nc(-c2ccccc2)n1 (stereo not shown) [Compound 72] in your answer.
A (Fold activation≧300%)

Entry O=C(Nc1ccccc1-c1nc2cccnc2s1)c1cc(C#CCO)nc(-c2ccccc2)n1 [Compound 79] needs its FOLD ACT. (percent maximum fold activation) filled in; supply it.
C (Fold Activation<150%)

Query FOLD ACT. (percent maximum fold activation) for O=C(Nc1ccccc1-c1nc2cccnc2s1)c1cc(N2CCN3CCC[C@H]3C2)nc(-c2ccccc2)n1 [Compound 120]
A (Fold activation≧300%)

Give me measured FOLD ACT. (percent maximum fold activation), please, for this compound: NCCNc1cc(C(=O)Nc2ccccc2-c2nc3cccnc3s2)nc(-c2ccccc2)n1 [Compound 83]
A (Fold activation≧300%)

Check the records and state FOLD ACT. (percent maximum fold activation) for O=C(Nc1ccccc1-c1nc2cccnc2s1)c1cc(Cl)nc(-c2ccccc2)n1 [Compound 8]
C (Fold Activation<150%)

Specify FOLD ACT. (percent maximum fold activation) for O=C(Nc1ccccc1-c1nc2cccnc2s1)c1cc(OC[C@@H](O)CO)cc(-c2ccccc2)n1 [Compound 127] and stop.
A (Fold activation≧300%)

Retrieve FOLD ACT. (percent maximum fold activation) measured for Cl.O=C(Nc1ccccc1-c1nc2cccnc2s1)c1cc(NCCN2CCOCC2)nc(-c2ccccc2)n1 [Compound 61] and print it.
A (Fold activation≧300%)

Output FOLD ACT. (percent maximum fold activation) of CNCCN(C)c1cc(C(=O)Nc2ccccc2-c2nc3cccnc3s2)nc(-c2ccccc2)n1 [Compound 147]
A (Fold activation≧300%)
